Recorded values, source ChEMBL document CHEMBL1149506.

log10(IC50) values for the compounds below.
- Assay Target: Coagulation factor XI (Homo sapiens)
- Sequence (P03951 19-387 limits assumed): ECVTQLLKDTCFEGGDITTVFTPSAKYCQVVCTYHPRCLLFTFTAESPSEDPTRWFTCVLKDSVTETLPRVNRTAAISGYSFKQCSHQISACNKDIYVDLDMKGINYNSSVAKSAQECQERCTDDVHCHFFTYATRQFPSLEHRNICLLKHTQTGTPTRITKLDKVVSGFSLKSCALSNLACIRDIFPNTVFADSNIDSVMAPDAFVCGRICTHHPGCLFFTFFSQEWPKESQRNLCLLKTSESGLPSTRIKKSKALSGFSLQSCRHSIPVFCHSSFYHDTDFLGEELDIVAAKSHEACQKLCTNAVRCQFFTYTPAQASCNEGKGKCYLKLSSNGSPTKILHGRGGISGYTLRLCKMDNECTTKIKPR
- Sequence (P03951 388-625 limits assumed): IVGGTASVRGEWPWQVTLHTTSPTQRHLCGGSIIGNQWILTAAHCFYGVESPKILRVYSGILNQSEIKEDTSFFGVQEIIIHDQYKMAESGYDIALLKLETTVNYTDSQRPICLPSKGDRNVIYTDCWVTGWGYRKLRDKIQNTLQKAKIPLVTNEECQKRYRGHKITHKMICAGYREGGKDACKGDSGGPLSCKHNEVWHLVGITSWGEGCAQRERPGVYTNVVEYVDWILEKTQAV
- Protocol Details: Inhibition of f11a
Where a name gives a salt, the structure may show the parent alone.
Property Label: log10(IC50) (log10 of the value in µM)

Compound: CC1(C)OB(c2ccc(C(NC(=N)N)OC(=O)c3cccnc3)cc2)OC1(C)C.O=C(O)C(F)(F)F (stereo not given)
log10(IC50): 0.15
//
Compound: N=C(N)c1ccccc1 [BENZAMIDINE HYDROCHLORIDE]
log10(IC50): 2.08
//
Compound: CC1(C)OB(c2ccc(CN=C(N)N)cc2)OC1(C)C
log10(IC50): 1.39
//
Compound: N=C(N)NCc1ccc(B(O)O)cc1.O=C(O)C(F)(F)F
log10(IC50): 1.34
//
Compound: CC1(C)OB(c2ccc(CCN=C(N)N)cc2)OC1(C)C.O=C(O)C(F)(F)F
log10(IC50): 0.86

----------
- Species on record: Homo sapiens
- Protocol Details: Selectivity for f11a over f10a
Selectivity ratio values for the molecules below.

Molecule: CC1(C)OB(c2ccc(CN=C(N)N)cc2)OC1(C)C
Selectivity ratio: 10
//
Molecule: CC1(C)OB(c2ccc(C(NC(=N)N)OC(=O)c3cccnc3)cc2)OC1(C)C.O=C(O)C(F)(F)F (centres undefined)
Selectivity ratio: 30
//
Molecule: CC1(C)OB(c2ccc(CCN=C(N)N)cc2)OC1(C)C.O=C(O)C(F)(F)F
Selectivity ratio: 25
//
Molecule: N=C(N)NCc1ccc(B(O)O)cc1.O=C(O)C(F)(F)F
Selectivity ratio: 10

----------
- Assay Target: Trypsin (Homo sapiens, UniProt P07477+P07478+P35030)
- Protocol Details: Inhibition of trypsin
- Assay type: protein assay
IC50 values for the compounds below.
Property Label: IC50 (µM)

Compound: CC1(C)OB(c2ccc(CN=C(N)N)cc2)OC1(C)C
Result Operator: >
Numeric Value: 200
//
Compound: CC1(C)OB(c2ccc(C(NC(=N)N)OC(=O)c3cccnc3)cc2)OC1(C)C.O=C(O)C(F)(F)F (stereo not given)
Result Operator: >
Numeric Value: 200
//
Compound: N=C(N)NCc1ccc(B(O)O)cc1.O=C(O)C(F)(F)F
Result Operator: >
Numeric Value: 200
//
Compound: CC1(C)OB(c2ccc(NC(=N)N)cc2)OC1(C)C.O=C(O)C(F)(F)F
Result Operator: =
Numeric Value: 2.3
//
Compound: CC1(C)OB(c2ccc(CCN=C(N)N)cc2)OC1(C)C.O=C(O)C(F)(F)F
Result Operator: =
Numeric Value: 20.3

----------
Selectivity ratio values for the molecules below.
- Species on record: Homo sapiens
- Protocol Details: Selectivity for f11a over trypsin

Molecule: CC1(C)OB(c2ccc(CN=C(N)N)cc2)OC1(C)C
Selectivity ratio: 10
--
Molecule: CC1(C)OB(c2ccc(C(NC(=N)N)OC(=O)c3cccnc3)cc2)OC1(C)C.O=C(O)C(F)(F)F (centres undefined)
Selectivity ratio: 200
--
Molecule: N=C(N)NCc1ccc(B(O)O)cc1.O=C(O)C(F)(F)F
Selectivity ratio: 10
--
Molecule: CC1(C)OB(c2ccc(CCN=C(N)N)cc2)OC1(C)C.O=C(O)C(F)(F)F
Selectivity ratio: 3
